- System name: Eukaryotic translation initiation factor 4H (Homo sapiens)
- Measurement notes: human eIF4H binding inhibitors, primary screen, translation initiation inhibitor project, biochemical, uHTS, fluorescence polarization (AID 2012);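 also: calls also rest on retests at 20 µM and on dose response follow-up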
- Assay setup: eIF4H fluorescence polarization binding assay; at 35 µM
Screen size: about 290,000 compounds; about 2,700 (0.93%) were called active. No rule for the calls is given here. The sample holds actives, similar compounds and a random draw of the others, so the mix is not that of the screen.
// allowed return values: active, inactive

Molecule	Class
O=C(CN1CCCC1)N1CCN(c2ccccc2)CC1	inactive
CCOC(=O)C(Cc1ccccc1)NC(=O)CCC(=O)c1ccc(OC)cc1 (stereo unspecified)	inactive
Cc1ccc2[nH]c3c(c2c1)CN(C(=O)CN1CCN(c2ccccc2)CC1)CC3	active
Cc1cccn2c(=O)c3cc(C(=O)NCC4CCCO4)c(=N)n(Cc4ccc(F)cc4)c3nc12 (stereo unspecified)	inactive
COc1cc(CC(=O)NCc2cccs2)cc(OC)c1OC	inactive

Q: State the result this test recorded for c1ccc(CSc2nnc(-c3ccco3)c(-c3ccco3)n2)cc1 .
Ans: active

Q: State the result this test recorded for Cc1ccc2nc3c(cc(C(=O)NCCc4ccccc4)c(=N)n3CC3CCCO3)c(=O)n2c1 (stereo unspecified) .
Ans: active

Q: State the result this test recorded for CCOc1ccc(OCC(=O)Nc2c3c(nn2C(C)(C)C)CS(=O)(=O)C3)cc1 .
Ans: inactive

Q: State the result this test recorded for O=c1ccn(Cc2ccccc2Cl)cc1 .
Ans: inactive

Q: State the result this test recorded for Brc1ccc(CSc2ccc(-c3ccco3)nn2)cc1 .
Ans: inactive

Q: State the result this test recorded for Cc1cc(=O)[nH]c(SCc2cc(Cl)ccc2OC(F)F)n1 .
Ans: inactive

Q: State the result this test recorded for O=C(NC1CCCC1)C(c1ccc(Cl)cc1)N(C(=O)c1csnn1)C1CC1 (stereo unspecified) .
Ans: inactive

Q: State the result this test recorded for O=c1nc(N/N=C/c2ccco2)cn[nH]1 .
Ans: active

Q: State the result this test recorded for CCN(CC(=O)NCc1cccs1)C(=O)c1ccccc1F .
Ans: inactive

Q: State the result this test recorded for O=[N+]([O-])c1ccccc1/C=N/n1c(COc2ccccc2)n[nH]c1=S .
Ans: inactive

Q: State the result this test recorded for O=S1(=O)CCN(Cc2ccccc2Cl)CC1 .
Ans: active

Q: State the result this test recorded for C=CCNC(=O)CSc1nc2scc(-c3ccco3)c2c(=O)n1CC=C .
Ans: inactive

Q: State the result this test recorded for CCc1c(C)nc2cc(-c3cccs3)[nH]n2c1=O .
Ans: inactive

Q: State the result this test recorded for Cc1ccc(O)c(NC(=O)c2cc(-c3ccco3)on2)c1 .
Ans: inactive

Q: State the result this test recorded for CC(C)NC(=O)C(=O)N/N=C/c1ccco1 .
Ans: inactive

Q: State the result this test recorded for Cc1ccnc2nc(C(=O)Nc3nnc(-c4ccccc4)o3)nn12 .
Ans: active

Q: State the result this test recorded for Cc1c(C2=CCN(S(=O)(=O)c3ccc(Cl)cc3)CC2)c2ccccc2n1C .
Ans: active

* * *

- System name: Eukaryotic translation initiation factor 4H (Homo sapiens)
- Measurement notes: human eIF4H binding inhibitors, primary screen, translation initiation inhibitor project, biochemical, uHTS, fluorescence polarization (AID 2012);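 also: calls also rest on retests at 20 µM and on dose response follow-up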
- Assay setup: eIF4H fluorescence polarization binding assay; at 35 µM
The whole screen tested about 290,000 compounds, of which about 2,700 (0.93%) were called active. The rule behind the calls is not given here. The list comes from a sample in which actives are over-represented; it also holds close analogues and randomly drawn compounds.
// allowed return values: 1 for active, 0 for inactive

Reference set (3 entries):
Compound	Class
Cc1ccc2c(c1)N(CC(=O)N1CCC(C)CC1)C(=O)c1cccnc1O2	0
O=C(CSCc1ccccc1)N1CCc2ccccc21	0
CN(C(=O)c1cc2c(=O)n3ccccc3nc2s1)C1CCCCC1	0

Q: State the result this test recorded for CCCNC(=O)CSc1nc(Cc2ccccc2)nc2ccccc12 .
Ans: 0

Q: State the result this test recorded for COc1cccc(Nc2ncccc2C(=O)O)c1 .
Ans: 0

Q: State the result this test recorded for CC(CC(=O)N1CCN(S(=O)(=O)c2ccccc2)CC1)n1cncn1 (centres undefined) .
Ans: 0

Q: State the result this test recorded for Cc1cc(=O)oc(C)c1C(=O)Nc1cnc2ccccc2c1 .
Ans: 1

Q: State the result this test recorded for Cc1cc(=O)oc(C)c1C(=O)NCc1ccc(F)cc1 .
Ans: 0

* * *

We begin with a simple list: items and their reported inhibition.
- System name: Eukaryotic translation initiation factor 4H (Homo sapiens)
- Measurement notes: human eIF4H binding inhibitors, primary screen, translation initiation inhibitor project, biochemical, uHTS, fluorescence polarization (AID 2012);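 also: calls also rest on retests at 20 µM and on dose response follow-up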
- Assay setup: eIF4H fluorescence polarization binding assay; at 35 µM; active compounds read high
Hit rate of the full screen: of about 290,000 compounds, about 2,700 (0.93%) were called active. This is one part of a sample in which actives are shown more often than they occur.
Entry rule: numbers only, all in %.

Q: Entry Cc1cccc(NS(=O)(=O)c2ccc(C(=O)NCC(C)(C)N3CCOCC3)cc2)c1C needs its inhibition filled in; supply it.
Ans: -0.1

Q: Entry CC1CN(C(=O)c2ccccc2NS(=O)(=O)c2cccc([N+](=O)[O-])c2)CC(C)O1 (stereo not given) needs its inhibition filled in; supply it.
Ans: -0.3

Q: Entry Cc1cc(/C=C2/C(=N)N3C(=NC2=O)SN=C3S(C)(=O)=O)c(C)n1-c1ccccc1 needs its inhibition filled in; supply it.
Ans: 93.3

Q: Entry Cc1ccc(OCC(=O)NC(C)c2ccccc2)c([N+](=O)[O-])n1 (stereo not given) needs its inhibition filled in; supply it.
Ans: -4.1

Q: Entry CCCCCCc1cc2cc(-c3nnc(-c4ccccc4)o3)c(=O)oc2cc1O needs its inhibition filled in; supply it.
Ans: 70.4

* * *

- System name: Eukaryotic translation initiation factor 4H (Homo sapiens)
- Measurement notes: human eIF4H binding inhibitors, primary screen, translation initiation inhibitor project, biochemical, uHTS, fluorescence polarization (AID 2012);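 also: calls also rest on retests at 20 µM and on dose response follow-up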
- Assay setup: eIF4H fluorescence polarization binding assay; at 35 µM; active compounds read high
Screen size: about 290,000 compounds; about 2,700 (0.93%) were called active. This is one part of a sample in which actives are shown more often than they occur.
We begin with a simple list: items and their reported inhibition.
Entry rule: numbers only, all in %.

Compound	System name	Output unit	inhibition
COc1ccc(Nc2ncnc3ccc(Br)cc23)c(OC)c1	Eukaryotic translation initiation factor 4H (Homo sapiens)	%	-9.9
CN1CCc2nc(SC(C(=O)O)c3ccccc3)c(C#N)c(-c3cccs3)c2C1 (stereo unspecified)	Eukaryotic translation initiation factor 4H (Homo sapiens)	%	76.7
COc1ccc(C2CC(c3ccc([N+](=O)[O-])cc3)=NN2C(C)=O)cc1 (stereo unspecified)	Eukaryotic translation initiation factor 4H (Homo sapiens)	%	2.5
Cc1c(-c2ccccc2)nc(N)c(C#N)c1-c1cccs1	Eukaryotic translation initiation factor 4H (Homo sapiens)	%	7.1
Cc1c(Cl)cnc(NC(=O)COC(=O)c2ccc(S(=O)(=O)NCc3ccco3)cc2)c1Cl	Eukaryotic translation initiation factor 4H (Homo sapiens)	%	58.6

Q: Entry CC1CCC2(CC1)NC(=O)N(CC(=O)c1ccc3c(c1)OCO3)C2=O (stereo unspecified) needs its inhibition filled in; supply it.
Ans: -5.1

* * *

- System name: Eukaryotic translation initiation factor 4H (Homo sapiens)
- Measurement notes: human eIF4H binding inhibitors, primary screen, translation initiation inhibitor project, biochemical, uHTS, fluorescence polarization (AID 2012);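 also: calls also rest on retests at 20 µM and on dose response follow-up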
- Assay setup: eIF4H fluorescence polarization binding assay; at 35 µM; active compounds read high
Hit rate of the full screen: of about 290,000 compounds, about 2,700 (0.93%) were called active. The sample holds actives, similar compounds and a random draw of the others, so the mix is not that of the screen.
We begin with a simple list: items and their reported inhibition.
Entry rule: numbers only, all in %.

A selection of reference data follows.
Cc1ccc(NC(=O)C2CCN(S(=O)(=O)c3ccc4c(c3)NC(=O)CO4)CC2)cc1C -7.3
COc1ccc(C)cc1-n1nnnc1SCC(=O)c1cc(C)n(Cc2ccco2)c1C 64.8

Next item in the queue.
Q: State, for Eukaryotic translation initiation factor 4H (Homo sapiens), measured inhibition of the molecule listed here: Cc1cc(C(=O)CSc2nc(N)cc(=O)[nH]2)c(C)n1Cc1ccco1
Ans: 43.2

* * *

We begin with a simple list: items and their reported inhibition.
- System name: Eukaryotic translation initiation factor 4H (Homo sapiens) (UniProt Q15056)
- Measurement notes: human eIF4H binding inhibitors, primary screen, translation initiation inhibitor project, biochemical, uHTS, fluorescence polarization (AID 2012);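 also: calls also rest on retests at 20 µM and on dose response follow-up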
- Assay setup: eIF4H fluorescence polarization binding assay; at 35 µM; active compounds read high
Screen size: about 290,000 compounds; about 2,700 (0.93%) were called active. The entries come from a sample that favours actives as a whole.
Entry rule: numbers only, all in %.

Compound	Output unit	inhibition
CCOC(=O)c1c(S(=O)(=O)NCC(=O)Nc2ccc(C)cc2)c(C)n(C)c1C	%	-0.1
CCCc1ccc(OCCNC(=O)c2ccccc2Br)cc1	%	8.8
O=C(c1cc(=O)c2ccccc2o1)N1CCN(c2ccccc2)CC1	%	1.2
CN(Cc1ccccc1)C(=O)c1ccc(NC2=NC3CS(=O)(=O)CC3S2)cc1 (stereo unspecified)	%	-7.2

Q: Entry Cc1ccc(C(=O)Nc2nnc(-c3cccs3)s2)cc1C needs its inhibition filled in; supply it.
Ans: -2.7

Q: Entry CSc1nnc(SCc2nc3sc(C(=O)O)c(C)c3c(=O)[nH]2)s1 needs its inhibition filled in; supply it.
Ans: 86.3

Q: Entry O=C(NC(=S)Nc1ncccn1)c1ccccc1Br needs its inhibition filled in; supply it.
Ans: -2

Q: Entry Cc1ccc(NC(=O)CCC(=O)c2ccc(Br)cc2)cc1 needs its inhibition filled in; supply it.
Ans: -5

Q: Entry O=C(N/N=C/c1c(Cl)[nH]c2ccccc12)c1sc2ccccc2c1Cl needs its inhibition filled in; supply it.
Ans: -8.2

Q: Entry CCOC(=O)C1C(c2ccc(O)cc2)NC(=O)NC1(O)C(F)(F)F (stereo unspecified) needs its inhibition filled in; supply it.
Ans: -0.5

Q: Entry Oc1ccc(N=Cc2c(O)ccc3ccccc23)cc1 needs its inhibition filled in; supply it.
Ans: 19

Values compiled from PubChem BioAssay AID2012.
